Where do the numbers come from? From patent US20110045101A1.

System: Septoria nodorum
Test: Test F: wheat glume blotch on wheat seedlings, sprayed the day before inoculation, visual disease rating
Format: in vivo
Settings: 200 ppm; 100 = 100% disease control, 0 = no control
Cut-off 80% on Test F disease control rating: below means 1, at or above means 0.

For Fc1cc(-n2c(Br)nc(Cl)c2-c2c(F)cccc2Cl)ccc1Cl [compound 203] , is the recorded Test F disease control rating below the cut-off of 80%? 0

Find out if reported Test F disease control rating for Fc1cc(-n2cnc(Cl)c2-c2c(F)cccc2Cl)ccc1Cl [compound 192] is less than 80% 1

Given Fc1ccc(F)c(-c2c(Cl)nc(Cl)n2Cc2ccc(Cl)cc2)c1F [compound 285] , is recorded Test F disease control rating strictly lower than 80%? 0

hey, is Test F disease control rating for Cc1nc(Cl)c(-c2c(F)ccc(F)c2Cl)n1-c1ccc(Cl)c(F)c1 [compound 237] lower than 80% or not? 0

Please indicate whether the reported Test F disease control rating of N#Cc1cc(F)c(-c2c(Cl)nc(Br)n2-c2ccc(Cl)cc2)c(F)c1 [compound 201] is strictly below 80%. 0

Dear colleague, could you confirm whether Test F disease control rating of Fc1ccc(-n2c(Cl)nc(Cl)c2-c2c(F)cccc2Cl)cc1 [compound 228] falls below 80%? Thanks. 1

Would you kindly verify if Test F disease control rating of COc1ccc(F)c(-c2c(N(C)C)ncn2Cc2ccc(Cl)cc2)c1F [compound 271] is strictly less than 80%? 1

Field: below-cutoff. Rule: recorded Test F disease control rating strictly less than 80%. Subject: CN(C)c1ncn(Cc2ccc(Cl)cc2)c1-c1c(F)ccc(F)c1F [compound 267] 1

====

Test system: Puccinia recondita f. sp. tritici
Assay: Test H: wheat leaf rust, test suspension sprayed after inoculation of wheat seedlings, visual disease rating
Format: in vivo
Settings: 200 ppm; 100 = 100% disease control, 0 = no control relative to controls
Threshold check on Test H disease control rating: at or above 9% gives 1.0, strictly below gives 0.0.

Quick check: does `Fc1ccc(F)c(-c2c(Br)nc(Cl)n2-c2ccc(Cl)cc2)c1F` have Test H disease control rating greater than or equal to 9%? 1.0

Say whether `CCOc1cc(F)c(-c2c(Cl)ncn2-c2ccc(F)cc2)c(F)c1` shows Test H disease control rating of 9% or more. 1.0

Item `COc1cc(F)c(-c2c(Cl)nc(Br)n2-c2ccc(OC(F)(F)F)cc2)c(F)c1` with Test H disease control rating of 9% or above? 0.0

// inclusive: Test H disease control rating at least 9%? input: `COc1cc(F)c(-c2c(Br)nn(C)c2-c2ccc(Cl)cc2)c(F)c1` 0.0

Please check the record `N#Cc1ccc(F)c(-c2cnc(Cl)n2-c2ccc(Cl)nc2)c1F` and state if its Test H disease control rating is at or above 9%. 0.0

Is reported Test H disease control rating greater than or equal to 9% here: `Cc1nc(Br)c(-c2ccc(Cl)c(F)c2)n1-c1ccc(F)cc1Cl` 0.0

====

metric name: melting point

What measured melting point goes with `Fc1cc(F)c(-c2c(Cl)nc(Cl)n2-c2ccc(Cl)cc2)c(F)c1` ? 112 to 119 °C

# get_value(readout='melting point', item= `Fc1cccc(F)c1-c1c(Cl)nc(Cl)n1-c1ccc(Cl)cc1` ) 123 to 125 °C

Fill in the blank: the reported melting point of `Fc1cc(F)c(-c2c(Cl)ncn2-c2ccc(Cl)cc2)c(F)c1` is ____. 102 to 104 °C

// query melting point value for entry `Cc1nc(Cl)c(-c2c(F)cccc2F)n1-c1ccc(Cl)cc1` 143 to 145 °C

====

Tested on: Puccinia recondita f. sp. tritici
Experiment: Test H: wheat leaf rust, test suspension sprayed after inoculation of wheat seedlings, visual disease rating
Format: in vivo
Conditions: 200 ppm; 100 = 100% disease control, 0 = no control relative to controls
metric name: Test H disease control rating

Lab note: need Test H disease control rating with Puccinia recondita f. sp. tritici for entry COc1cc(F)c(-c2c(Cl)nc(Cl)n2Cc2ccc(Cl)nc2)c(F)c1 [compound 667] , please look it up. 8%

Short answer please: Test H disease control rating, Puccinia recondita f. sp. tritici, entry COc1cc(F)c(-c2c(Br)ncn2-c2ccc(F)cc2)c(F)c1 [compound 506] 78%

What is its Test H disease control rating for Puccinia recondita f. sp. tritici? Entry: COc1cc(F)c(-c2c(Br)ncn2-c2ccc(C)nc2)c(F)c1 [compound 555] 0%

Which Test H disease control rating is reported with Puccinia recondita f. sp. tritici for this entry: COc1ccc(F)c(-c2c(Cl)nc(Cl)n2-c2ccc(Cl)c(C)c2)c1F [compound 399] ? 0%

Notebook entry, Puccinia recondita f. sp. tritici assay: Test H disease control rating of COc1cc(F)c(-c2c(C)nnn2-c2ccc(Cl)cc2)c(F)c1 [compound 628] = ? 0%

Missing value: Test H disease control rating, Puccinia recondita f. sp. tritici, entry COc1ccc(F)c(-c2c(Cl)nc(Br)n2-c2cccc(C)c2)c1F [compound 316] . Fill in? 6%

Kindly state the measured Test H disease control rating obtained for CCOc1ccc(F)c(-c2c(Cl)nc(Br)n2-c2cccc(F)c2)c1F [compound 663] with Puccinia recondita f. sp. tritici. 54%

Notebook: pull reported Test H disease control rating for Puccinia recondita f. sp. tritici, entry Cc1nc(Cl)n(-c2ccc(Cl)c(F)c2)c1-c1ccnc(Br)c1 [compound 354] 0%

Given the entry COc1cc(OC)cc(-n2c(Cc3ccc(F)cc3F)cnc2C)c1 [compound 476] , what Test H disease control rating was observed with Puccinia recondita f. sp. tritici? 0%

Enter reported Test H disease control rating observed with Puccinia recondita f. sp. tritici for Fc1cc(-n2cnc(Br)c2-c2c(F)ccc(F)c2Cl)ccc1Cl [compound 409] 0%

Find the measured Test H disease control rating: item Cc1ncn(-c2ccc(Cl)c(F)c2)c1-c1ccnc(Br)c1 [compound 345] , target or system Puccinia recondita f. sp. tritici. 0%

Form: Entry = Cc1nc(Cl)c(-c2c(F)cccc2F)n1-c1ccc(Cl)nc1 [compound 666] | System = Puccinia recondita f. sp. tritici | Test H disease control rating = ____ 100%

Field: Test H disease control rating (Puccinia recondita f. sp. tritici). Entry: COc1ccc(-c2c(Cl)ncn2-c2ccc(F)cc2)c(Cl)c1 [compound 726] 0%

Record COc1cncc(F)c1-c1c(Cl)nc(Cl)n1-c1ccc(Cl)c(F)c1 [compound 435] : what is its Test H disease control rating with Puccinia recondita f. sp. tritici? 0%

Hello, I am looking for reported Test H disease control rating with Puccinia recondita f. sp. tritici for Fc1cc(F)c(-c2c(Cl)ncn2-c2ccc(OC(F)(F)F)cc2)c(F)c1 [compound 587] . Could you help? 7%

Observed Test H disease control rating on Puccinia recondita f. sp. tritici for COc1cc(F)c(-c2c(Cl)nc(Cl)n2-c2cccnc2OC)c(F)c1 [compound 676] , please. 99%

I'm curious: which Test H disease control rating was measured for Cc1nn(C)c(Cc2cccc(F)c2)c1-c1ccc(F)cc1Cl [compound 311] tested on Puccinia recondita f. sp. tritici? 100%

Lab request: please report Test H disease control rating under test system Puccinia recondita f. sp. tritici for COc1ccc(F)c(-c2c(Cl)nc(Cl)n2-c2ccc(Cl)cc2)c1F [compound 309] 11%

Record lookup: for Puccinia recondita f. sp. tritici, what Test H disease control rating belongs to COc1cc(F)c(-c2c(Cl)ncn2-c2cccc(OC(F)F)c2)c(F)c1 [compound 556] ? 87%

# get_value(readout= Test H disease control rating, system= Puccinia recondita f. sp. tritici) for COc1cc(F)c(-c2c(C)nc(Br)n2-c2ccc(C(F)(F)F)nc2)c(F)c1 [compound 731] 0%

Item: Cc1nc(Br)n(-c2ccc(Cl)nc2)c1-c1c(F)cccc1F [compound 682] Test system: Puccinia recondita f. sp. tritici Read-out: Test H disease control rating Value: ? 97%

Value wanted: Test H disease control rating (Puccinia recondita f. sp. tritici) of entry N#Cc1ccc(F)c(-c2c(Cl)nc(Cl)n2-c2cccc(F)c2)c1F [compound 681] 0%

Enter reported Test H disease control rating observed with Puccinia recondita f. sp. tritici for Fc1cc(F)c(-c2c(Cl)nc(Br)n2-c2ccc(OC(F)(F)F)cc2)c(F)c1 [compound 606] 0%

Lab note: need Test H disease control rating for COc1ccc(F)c(-c2c(Cl)nc(Cl)n2-c2cccc(OC(F)F)c2)c1F [compound 400] on Puccinia recondita f. sp. tritici, anyone have it? 0%

Recall the recorded Test H disease control rating for COc1ccc(F)c(-c2c(Br)nc(Cl)n2-c2ccc(C)cc2)c1F [compound 517] with Puccinia recondita f. sp. tritici and state it. 0%

Return Test H disease control rating measured with Puccinia recondita f. sp. tritici given this molecule: COc1ccc(F)c(-c2c(Cl)nc(Cl)n2-c2ccc(C#N)cc2)c1F [compound 552] 0%

Hello, I am looking for reported Test H disease control rating with Puccinia recondita f. sp. tritici for Cc1cccc(-c2c(C)nc(Cl)n2-c2ccc(Cl)c(F)c2)n1 [compound 378] . Could you help? 0%

Record lookup: for Puccinia recondita f. sp. tritici, what Test H disease control rating belongs to COc1cc(F)c(-c2c(Cl)nnn2-c2ccc(Cl)cc2)c(F)c1 [compound 626] ? 17%

Puccinia recondita f. sp. tritici / Test H disease control rating / COc1cc(F)c(-c2c(Cl)nc(Cl)n2-c2ccc(OC)nc2Cl)c(F)c1 [compound 515] : value? 100%

Form field - read-out: Test H disease control rating; system: Puccinia recondita f. sp. tritici; submitted item: Fc1cc(F)c(-c2c(Cl)ncn2-c2cccc(OC(F)(F)F)c2)c(F)c1 [compound 586] 0%

For the record Fc1cccc(F)c1-c1c(Cl)nc(Cl)n1-c1ccccc1 [compound 591] , what value of Test H disease control rating is listed for Puccinia recondita f. sp. tritici? 96%

Request - read-out Test H disease control rating | tested on Puccinia recondita f. sp. tritici | molecule Fc1cc(F)c(-c2c(Cl)nc(Cl)n2-c2cccc(OC(F)(F)F)c2)c(F)c1 [compound 599] 0%

Request - read-out Test H disease control rating | tested on Puccinia recondita f. sp. tritici | molecule COc1ccc(F)c(-c2c(Br)ncn2-c2ccc(C)cc2)c1F [compound 473] 0%

Any idea what Test H disease control rating came out for Fc1cc(F)c(-c2c(Cl)nc(Cl)n2-c2ccc(OC(F)F)cc2)c(F)c1 [compound 598] on Puccinia recondita f. sp. tritici? 99%

What value of Test H disease control rating on Puccinia recondita f. sp. tritici does Cc1nc(Cl)c(-c2ccc(Cl)cc2)n1-c1c(F)cc([N+](=O)[O-])cc1F [compound 708] have? 7%

What is its Test H disease control rating for Puccinia recondita f. sp. tritici? Entry: CCc1ccc(-n2c(C)nc(Cl)c2-c2c(F)ccc(OC)c2F)cc1 [compound 479] 0%
